Species on record: Rattus norvegicus
Assay type: functional, Striatum, Membrane
Description: Inhibition constant on radiolabeled [125 I] FIDA1 binding to rat striatal membranes

Compound | Ki
CN1[C@@H]2CC[C@H]1C[C@@H](OC(=O)C(CO)c1ccccc1)C2 (some centres undefined) | > 10 µM
C=CCN1CC[C@]23c4c5ccc(O)c4O[C@H]2C(=O)CC[C@@]3(O)[C@H]1C5 | > 10 µM
CC(C)(C)[C@@]1(O)CCN2C[C@@H]3c4ccccc4CCc4cccc(c43)[C@H]2C1 | 0.00105 µM
NCCc1c[nH]c2ccc(O)cc12 | > 5 µM

====

Organism: Rattus norvegicus
Protocol Summary: Inhibition constant on radiolabeled [125I]FIDA2 binding to rat striatal membranes
Design: species or system Striatum, Membrane
pKi: −log10 of the molar value.
Measured pKi, listed per entry for reference.
Value Kind: pKi

Compound | Observed Result
CCN1CCC[C@H]1CNC(=O)c1c(O)c(Cl)cc(Cl)c1OC [RACLOPRIDE] | 8.30
CCc1cc(Cl)c(OC)c(C(=O)NC[C@@H]2CCCN2CC)c1O [ETICLOPRIDE] | 10.22
